Protein target, amino acids: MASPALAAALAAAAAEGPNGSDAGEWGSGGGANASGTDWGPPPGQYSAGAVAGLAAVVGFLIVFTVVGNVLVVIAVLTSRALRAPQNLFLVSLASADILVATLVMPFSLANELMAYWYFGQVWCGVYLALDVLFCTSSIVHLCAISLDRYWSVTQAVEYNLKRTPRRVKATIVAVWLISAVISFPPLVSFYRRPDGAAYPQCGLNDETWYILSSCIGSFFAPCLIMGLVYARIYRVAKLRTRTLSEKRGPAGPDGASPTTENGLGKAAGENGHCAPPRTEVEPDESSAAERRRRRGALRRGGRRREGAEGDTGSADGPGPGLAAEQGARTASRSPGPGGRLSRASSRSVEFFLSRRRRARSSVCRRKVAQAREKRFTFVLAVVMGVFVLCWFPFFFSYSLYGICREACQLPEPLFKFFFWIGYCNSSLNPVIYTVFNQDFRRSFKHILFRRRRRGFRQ
PROPERTY_LABEL: pKi
Scale: negative log10 of molar concentration, which is what pKi denotes.

Problem: Suppose we examine the molecule CN(C)C1CCc2[nH]c3ccc(NC(=O)c4ccc(F)cc4)cc3c2C1 (stereo unspecified) ; what pKi value has been reported?
Solution: 5.43

* * *

TESTED_ON: 5-hydroxytryptamine receptor 2B (Homo sapiens, UniProt P41595)
Sequence (P41595 whole entry): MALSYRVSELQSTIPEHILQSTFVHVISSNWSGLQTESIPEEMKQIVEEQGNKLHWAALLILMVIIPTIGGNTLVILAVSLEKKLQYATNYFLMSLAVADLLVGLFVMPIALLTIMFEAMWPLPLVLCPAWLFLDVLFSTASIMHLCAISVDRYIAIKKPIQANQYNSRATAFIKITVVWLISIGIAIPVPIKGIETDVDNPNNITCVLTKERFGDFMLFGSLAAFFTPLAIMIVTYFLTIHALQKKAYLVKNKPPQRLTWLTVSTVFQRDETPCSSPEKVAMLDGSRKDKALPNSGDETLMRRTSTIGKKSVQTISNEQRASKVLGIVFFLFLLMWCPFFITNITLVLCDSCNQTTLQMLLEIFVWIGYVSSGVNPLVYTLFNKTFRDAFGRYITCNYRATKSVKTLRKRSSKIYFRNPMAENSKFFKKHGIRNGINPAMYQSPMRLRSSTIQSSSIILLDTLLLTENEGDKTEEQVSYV
PROPERTY_LABEL: pKi
Please treat pKi as minus the base-10 logarithm of the molar concentration.

Problem: // query pKi value for entry CN(C)C1CCc2[nH]c3ccc(NC(=O)c4ccc(F)cc4)cc3c2C1 (stereo unspecified)
Solution: 5.77

* * *

TESTED_ON: 5-hydroxytryptamine receptor 1D (Homo sapiens)
Sequence (P28221 whole entry): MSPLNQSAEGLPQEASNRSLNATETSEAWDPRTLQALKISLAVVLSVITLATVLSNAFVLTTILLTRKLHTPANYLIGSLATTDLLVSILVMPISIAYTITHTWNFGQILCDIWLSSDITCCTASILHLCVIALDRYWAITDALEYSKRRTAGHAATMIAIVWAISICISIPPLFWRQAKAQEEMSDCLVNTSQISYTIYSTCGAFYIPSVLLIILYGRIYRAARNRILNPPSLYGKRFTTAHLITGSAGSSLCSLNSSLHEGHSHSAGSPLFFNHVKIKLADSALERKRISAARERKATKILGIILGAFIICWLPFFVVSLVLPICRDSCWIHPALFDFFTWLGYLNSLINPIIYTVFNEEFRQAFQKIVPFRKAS
PROPERTY_LABEL: Ki (nM)
Give the value in nM but do not write nM after it.

Problem: # query: Ki of entry CN(C)C1CCc2[nH]c3ccc(NC(=O)c4ccc(F)cc4)cc3c2C1 (stereo unspecified) [NSC_5311097]
Solution: 575

* * *

TESTED_ON: 5-hydroxytryptamine receptor 7 (Homo sapiens)
Sequence (P34969 whole entry): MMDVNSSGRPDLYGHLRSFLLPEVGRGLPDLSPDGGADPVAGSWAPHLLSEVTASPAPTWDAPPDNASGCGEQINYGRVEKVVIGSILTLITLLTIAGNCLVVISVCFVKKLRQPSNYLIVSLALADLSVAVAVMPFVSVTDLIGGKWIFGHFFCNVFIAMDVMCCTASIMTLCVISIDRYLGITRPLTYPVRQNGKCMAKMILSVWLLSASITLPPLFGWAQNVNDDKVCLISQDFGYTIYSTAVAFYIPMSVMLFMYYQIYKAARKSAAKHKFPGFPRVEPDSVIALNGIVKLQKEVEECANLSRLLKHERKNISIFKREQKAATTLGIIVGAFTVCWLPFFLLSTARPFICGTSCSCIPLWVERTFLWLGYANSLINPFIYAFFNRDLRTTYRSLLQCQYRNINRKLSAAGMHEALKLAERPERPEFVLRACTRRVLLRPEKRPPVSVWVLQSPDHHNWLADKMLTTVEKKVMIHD
PROPERTY_LABEL: pKi
Please treat pKi as minus the base-10 logarithm of the molar concentration.

Problem: For CN(C)C1CCc2[nH]c3ccc(NC(=O)c4ccc(F)cc4)cc3c2C1 (stereo unspecified) [NSC_5311097] , what is its reported pKi?
Solution: 5.31
